- ASSAY_OVERVIEW: qHTS assay for identifying genotoxic compounds that show differential cytotoxicity against isogenic chicken DT40 cell lines with known DNA damage response pathways - wild type cell line (AID 743012); note: nearly all actives have a fitted effect of over 60% in size
- COND: DT40 wild type chicken cells viability, CellTiter-Glo, 40 h; series mostly up to 68.4 µM
Results filed as inconclusive are left out. Activity calls are given as the source filed them. Calls come from the whole dose curve; as a rule, active = well fitted cell-killing curve with a large enough effect in the repeat runs; inconclusive = weak or mixed curves, or effect the other way; inactive = no such curve, though single readings can be large or run the other way.
Possible outcomes: true (active), false (inactive)

[
  {
    "COMPOUND": "CC1=CC(=C(c2ccc(N)cc2)c2ccc(N)cc2)C=CC1=N",
    "GROUP": "true"
  },
  {
    "COMPOUND": "CC(CN=Cc1ccccc1O)N=Cc1ccccc1O (configuration not stated)",
    "GROUP": "false"
  },
  {
    "COMPOUND": "CCCCCCCCCC(C)C=O (configuration not stated)",
    "GROUP": "false"
  },
  {
    "COMPOUND": "CC(C)(O)C(=O)O",
    "GROUP": "false"
  },
  {
    "COMPOUND": "Nc1ccccc1Nc1ccccc1",
    "GROUP": "true"
  },
  {
    "COMPOUND": "O=C(O)COCC(=O)O",
    "GROUP": "false"
  },
  {
    "COMPOUND": "O=C(OC1C[C@H]2CC[C@@H](C1)[N+]21CCCC1)C(O)(c1ccccc1)c1ccccc1 (some centres not stated)",
    "GROUP": "false"
  },
  {
    "COMPOUND": "O=Cc1ccc(Cl)c([N+](=O)[O-])c1",
    "GROUP": "true"
  },
  {
    "COMPOUND": "CC(C)(Cc1c[nH]c2ccccc12)NCC(O)COc1ccccc1C#N (configuration not stated)",
    "GROUP": "true"
  },
  {
    "COMPOUND": "O=C(O)c1c2ccccc2cc2ccccc12",
    "GROUP": "false"
  },
  {
    "COMPOUND": "CCCCCCCCOCCCN",
    "GROUP": "true"
  },
  {
    "COMPOUND": "CC(C)CCCCCCCOC(=O)c1ccc(C(=O)OCCCCCCCC(C)C)c(C(=O)OCCCCCCCC(C)C)c1",
    "GROUP": "false"
  },
  {
    "COMPOUND": "CCc1ccc(C(=O)C(C)CN2CCCCC2)cc1 (configuration not stated)",
    "GROUP": "true"
  },
  {
    "COMPOUND": "Cc1nc2sccn2c(=O)c1CCN1CCC(=C(c2ccc(F)cc2)c2ccc(F)cc2)CC1",
    "GROUP": "true"
  },
  {
    "COMPOUND": "C[C@]12CCC(=O)C=C1[C@@H]1C[C@@H]1[C@H]1[C@@H]3[C@@H]4C[C@@H]4[C@@]4(CCC(=O)O4)[C@@]3(C)CC[C@@H]12",
    "GROUP": "true"
  },
  {
    "COMPOUND": "C/C=C1\\[C@H]2C=C(C)C[C@]1(N)c1ccc(=O)[nH]c1C2",
    "GROUP": "false"
  },
  {
    "COMPOUND": "CCC(C)CCCC(C)(C)O (configuration not stated)",
    "GROUP": "false"
  },
  {
    "COMPOUND": "C=CC(C)CCC=C(C)C (configuration not stated)",
    "GROUP": "false"
  },
  {
    "COMPOUND": "C1=COCCC1",
    "GROUP": "false"
  },
  {
    "COMPOUND": "CO[C@@H]1[C@@H](O[C@@H]2O[C@H](C)[C@@H](O[C@H]3C[C@@](C)(O)[C@@H](O)[C@H](C)O3)[C@H](N(C)C)[C@H]2O)[C@@H](CC=O)C[C@@H](C)[C@@H](O[C@@H]2CC[C@H](N(C)C)[C@@H](C)O2)/C=C/C=C/C[C@@H](C)OC(=O)C[C@H]1OC(C)=O",
    "GROUP": "true"
  },
  {
    "COMPOUND": "CC(=O)c1ccc(Cl)c(Cl)c1Cl",
    "GROUP": "false"
  },
  {
    "COMPOUND": "O=C(O)c1ccc(O)c(O)c1",
    "GROUP": "false"
  },
  {
    "COMPOUND": "OCC(O)c1ccccc1 (configuration not stated)",
    "GROUP": "false"
  },
  {
    "COMPOUND": "CC1(COc2ccc(CC3SC(=O)NC3=O)cc2)CCCCC1 (configuration not stated)",
    "GROUP": "true"
  },
  {
    "COMPOUND": "O=C(Nc1ccccc1)c1cc([N+](=O)[O-])ccc1Cl",
    "GROUP": "true"
  },
  {
    "COMPOUND": "CC(C)(C)c1ccc(CCC=O)cc1",
    "GROUP": "false"
  },
  {
    "COMPOUND": "Cc1c(-c2cccnc2)c2ccccc2n1CCCCC(=O)O",
    "GROUP": "false"
  },
  {
    "COMPOUND": "O=C(O)c1ccccc1[N+](=O)[O-]",
    "GROUP": "false"
  },
  {
    "COMPOUND": "SCCOCCOCCS",
    "GROUP": "false"
  },
  {
    "COMPOUND": "CCCCCCCCCCCCSC#N",
    "GROUP": "false"
  },
  {
    "COMPOUND": "CCCCCCCCCCCC(=O)OCC",
    "GROUP": "false"
  },
  {
    "COMPOUND": "O=C1OC(=O)C2CC=CCC12 (configuration not stated)",
    "GROUP": "false"
  },
  {
    "COMPOUND": "O=C(O)c1cccnc1Nc1cccc(C(F)(F)F)c1",
    "GROUP": "false"
  },
  {
    "COMPOUND": "CC(C)C/C=C(\\C=O)c1ccccc1",
    "GROUP": "false"
  },
  {
    "COMPOUND": "C(/C=C/C=C/Nc1ccccc1)=Nc1ccccc1",
    "GROUP": "false"
  },
  {
    "COMPOUND": "CC(C)CC(C)(C)C",
    "GROUP": "false"
  },
  {
    "COMPOUND": "CCC(=O)O[C@@H]1C[C@H]2CC[C@]1(C)C2(C)C",
    "GROUP": "false"
  },
  {
    "COMPOUND": "CC(C(=O)O)c1ccc(/C=C2\\CCCCC2=O)cc1 (configuration not stated)",
    "GROUP": "false"
  },
  {
    "COMPOUND": "CCCN(C1CCN(C(=O)C2CCNCC2)CC1)[C@@H]1CCc2ccc(OC)cc2C1",
    "GROUP": "true"
  },
  {
    "COMPOUND": "CC(C)CCCCCOC(=O)CS",
    "GROUP": "true"
  },
  {
    "COMPOUND": "OCCCO",
    "GROUP": "false"
  },
  {
    "COMPOUND": "Oc1ccc(Oc2ccccc2)cc1",
    "GROUP": "true"
  },
  {
    "COMPOUND": "COC(=O)c1cc(Cl)ccc1[N+](=O)[O-]",
    "GROUP": "false"
  },
  {
    "COMPOUND": "CC(C)(C)NCC(O)COc1ccc(NC(=O)NC2CCCCC2)cc1 (configuration not stated)",
    "GROUP": "true"
  },
  {
    "COMPOUND": "Cc1cc(C)c(C)c(O)c1",
    "GROUP": "false"
  },
  {
    "COMPOUND": "COc1cccc([C@H](O)C2CCN(CCc3ccc(F)cc3)CC2)c1OC",
    "GROUP": "true"
  },
  {
    "COMPOUND": "CCOC(=O)CC(O)(CC(=O)OCC)C(=O)OCC",
    "GROUP": "false"
  },
  {
    "COMPOUND": "CC(=O)Oc1cccc2c1C(=O)c1c(OC(C)=O)cc(C(=O)O)cc1C2=O",
    "GROUP": "false"
  },
  {
    "COMPOUND": "CCCCCCCCNC",
    "GROUP": "false"
  },
  {
    "COMPOUND": "CC1=C(C)C(=O)C(C(CCCCCC(=O)O)c2ccccc2)=C(C)C1=O (configuration not stated)",
    "GROUP": "false"
  },
  {
    "COMPOUND": "C1CCN(CN2CCCCC2)CC1",
    "GROUP": "false"
  },
  {
    "COMPOUND": "O=C(O)CNc1ccccc1",
    "GROUP": "false"
  }
]

---

- SYSTEM_TESTED: Cytochrome P450 2D6 (Homo sapiens)
- ASSAY_OVERVIEW: Cytochrome P450 Family 2 Subfamily D Member 6 (CYP2D6) small molecule antagonists: luciferase reporter qHTS assay (AID 1671196); note: nearly all actives have a fitted effect of over 50% in size
- COND: P450-Glo CYP2D6 enzyme assay, luciferin luminescence, 1 h; series mostly up to 115 µM
Records with an inconclusive call do not appear. Calls of active or inactive are those of the source. The call rests on the fitted dose curve; in most records, active means well fitted inhibition curve with a large enough effect in the repeat runs; inconclusive means weak or mixed curves; inactive means no such curve, though single readings can be large or run the other way.
Outcome codes: 1.0 (active), 0.0 (inactive)

[
  {
    "COMPOUND": "FC1(F)C(F)(F)C(F)(F)C2(F)C(F)(C1(F)F)C(F)(F)C(F)(F)C1(F)C(F)(F)C(F)(F)C(F)(F)C(F)(F)C12F (stereo unspecified)",
    "GROUP": 0.0
  },
  {
    "COMPOUND": "Cc1c(-c2cccnc2)c2ccccc2n1CCCCC(=O)O",
    "GROUP": 0.0
  },
  {
    "COMPOUND": "O=C(C1CCCCC1)N1CC(=O)N2CCCc3ccccc3C2C1 (stereo unspecified)",
    "GROUP": 0.0
  },
  {
    "COMPOUND": "C(/C=C/C=C/Nc1ccccc1)=Nc1ccccc1",
    "GROUP": 1.0
  },
  {
    "COMPOUND": "O=C(OCCN1CCOCC1)c1cccnc1Nc1cccc(C(F)(F)F)c1",
    "GROUP": 0.0
  },
  {
    "COMPOUND": "Cc1cccc(C)c1NC(=O)CN1CCCC1",
    "GROUP": 1.0
  },
  {
    "COMPOUND": "CO[C@@H]1COCC[C@@H]1N[C@@H]1CC[C@@](C(=O)N2CCc3ncc(C(F)(F)F)cc3C2)(C(C)C)C1",
    "GROUP": 1.0
  },
  {
    "COMPOUND": "O=C(Nc1ccc2c(c1)Cc1ccccc1-2)C(F)(F)F",
    "GROUP": 0.0
  },
  {
    "COMPOUND": "CNc1ccccc1",
    "GROUP": 0.0
  },
  {
    "COMPOUND": "Cc1nc(C)c(C)nc1C",
    "GROUP": 0.0
  },
  {
    "COMPOUND": "CC(CC(C#N)(c1ccccc1)C(C)C)N(C)C (stereo unspecified)",
    "GROUP": 1.0
  }
]

Hey, just so you know, these numbers are from PubChem BioAssay (Tox21).
